Recorded values, source patent US7531567B2.

Test system: peritoneal macrophages
Experiment: cytokine synthesis of peritoneal macrophages (enzyme immunoassay)
Format: cell-based, human
Conditions: treatment period of 6 days (n=10); α-lipoic acid 50 μM, ambroxole 10 μM, enalapril 5 μM, captopril 10 μM
Structures can show the parent of a compound that is named as a salt.
Reported IL-6 by item:
Field format: number, assumed ng/10^6 cells, no unit text.

[[record]]
compound = "C[C@H](CS)C(=O)N1CCC[C@H]1C(=O)O"
target = "peritoneal macrophages"
quantity = "IL-6"
value = 42.9


Tell us which IL-6 value is on record for Nc1c(Br)cc(Br)cc1CNC1CCC(O)CC1 (stereo not shown) [Ambroxole, hydrochloride]
51.8

Annotate the compound CCOC(=O)[C@H](CCc1ccccc1)NC(C)C(=O)N1CCCC1C(=O)O (stereo in doubt) with its measured IL-6.
41.7

Find the measured IL-6 of O=C(O)CCCCC1CCSS1 (stereo not shown) and report it.
46.9

###

Test system: peritoneal macrophages
Test: degree of differentiation and activation of peritoneal macrophages (CD15, CD11c, CD69, CD71)
Format: cell-based, human
Details: CD69 on CD15-positive cells; incubation for 6 days; control = 1.0; α-lipoic acid 50 μM, ambroxole 10 μM, enalapril 5 μM, captopril 10 μM
Where a name gives a salt, the structure may show the parent alone.
quantity: CD15/69
Please reply with the value in numeric form only.

[[record]]
compound = "CCOC(=O)[C@H](CCc1ccccc1)NC(C)C(=O)N1CCCC1C(=O)O (stereo in doubt)"
quantity = "CD15/69"
value = 1.19

[[record]]
compound = "C[C@H](CS)C(=O)N1CCC[C@H]1C(=O)O"
quantity = "CD15/69"
value = 1.69

[[record]]
compound = "Nc1c(Br)cc(Br)cc1CNC1CCC(O)CC1 (stereo not shown) [Ambroxole, hydrochloride]"
quantity = "CD15/69"
value = 0.98


Query compound follows.
Look up and state reported CD15/69 for O=C(O)CCCCC1CCSS1 (stereo not shown)
1.09

###

Test system: peritoneal macrophages
Test: degree of differentiation and activation of peritoneal macrophages (CD15, CD11c, CD69, CD71)
Assay type: cell-based, human
Conditions: CD71 on CD11c-positive cells; incubation for 6 days; control = 1.0; α-lipoic acid 50 μM, ambroxole 10 μM, enalapril 5 μM, captopril 10 μM
Counter-ions that a name gives are not always drawn.
Documented CD11c/71 across a set of molecules
API note: the answer field is a bare number with no unit suffix.

Use these answered entries as a reference point.
[[record]]
molecule = "Nc1c(Br)cc(Br)cc1CNC1CCC(O)CC1 (stereo not shown) [Ambroxole, hydrochloride]"
quantity = "CD11c/71"
value = 0.96

[[record]]
molecule = "C[C@H](CS)C(=O)N1CCC[C@H]1C(=O)O"
quantity = "CD11c/71"
value = 1.52

[[record]]
molecule = "O=C(O)CCCCC1CCSS1 (stereo not shown)"
quantity = "CD11c/71"
value = 1.08


Let us move to another entry and its CD11c/71.
Answer with the recorded CD11c/71 for the molecule listed here: CCOC(=O)[C@H](CCc1ccccc1)NC(C)C(=O)N1CCCC1C(=O)O (stereo in doubt)
1.10
